- TARGET UNDER TEST: Myo3, P36006
- EXPERIMENT NOTES: SPOT array
- ASSAY CONTEXT: median of control spots 468
Define the label as Satisfied when SPOT intensity is strictly less than 6 and as Not satisfied in all remaining cases.

See these solved cases before continuing.
- TKIRRRPQQPLTDFT: Not satisfied
- VAPPPLPNRQLPNLD: Not satisfied
- VATSTSPKLPPRGKQ: Satisfied
- AHFQPQRTAPKPPIS: Not satisfied
- TKFRISLGLPVGAIM: Not satisfied

[in] Decide: SPOT intensity of APPPPPRRATPEKKP strictly below 6?
[out] Not satisfied

[in] Just wondering, is SPOT intensity of FPGKKSPRLPHRNKK below 6?
[out] Satisfied

[in] Please state whether SPOT intensity is below 6 for KRNRLKILLPFLEQS
[out] Not satisfied
